# Measured Target: BDNF/NT-3 growth factors receptor (Homo sapiens)
# Assay Explanation: Inhibition of TRKB (unknown origin) at 10 uM relative to control

{"columns": ["Compound Structure", "inhibition"],
 "data": [
  ["N=C1NC[C@H](CC2CCCCC2)N1C[C@H](Cc1ccc(O)cc1)NS(=O)(=O)c1ccccc1Cl", "16%"],
  ["CC(C)C[C@H]1CNC(=N)N1C[C@H](Cc1ccc(O)cc1)NS(=O)(=O)c1ccccc1Cl", "0.1%"],
  ["Cc1ccc(S(=O)(=O)N[C@@H](Cc2ccc(O)cc2)CN2C(=N)NC[C@@H]2CC2CCCCC2)cc1", "25.3%"],
  ["Cc1ccc(S(=O)(=O)N[C@@H](Cc2ccc(O)cc2)CN2C(=N)NC[C@@H]2CC(C)C)cc1", "0.8%"],
  ["N=C1NC[C@H](CC2CCCCC2)N1C[C@H](Cc1ccccc1)NS(=O)(=O)c1ccccc1", "10.6%"],
  ["CC(C)C[C@H]1CNC(=N)N1C[C@H](Cc1ccccc1)NS(=O)(=O)c1ccccc1", "2%"]
]}

---

# Measured Target: Insulin receptor (Homo sapiens)
# Assay Explanation: Inhibition of INSR (unknown origin) at 10 uM relative to control
Use criterion met when the recorded inhibition is no lower than 6%; use criterion not met when it is lower.

{"columns": ["Compound Structure", "Label"],
 "data": [
  ["N=C1NC[C@H](CC2CCCCC2)N1C[C@H](Cc1ccccc1)NS(=O)(=O)c1ccccc1", "criterion met"],
  ["Cc1ccc(S(=O)(=O)N[C@@H](Cc2ccc(O)cc2)CN2C(=N)NC[C@@H]2CC2CCCCC2)cc1", "criterion not met"],
  ["CC(C)C[C@H]1CNC(=N)N1C[C@H](Cc1ccccc1)NS(=O)(=O)c1ccccc1", "criterion not met"],
  ["CC(C)C[C@H]1CNC(=N)N1C[C@H](Cc1ccc(O)cc1)NS(=O)(=O)c1ccccc1Cl", "criterion met"],
  ["Cc1ccc(S(=O)(=O)N[C@@H](Cc2ccc(O)cc2)CN2C(=N)NC[C@@H]2CC(C)C)cc1", "criterion not met"],
  ["N=C1NC[C@H](CC2CCCCC2)N1C[C@H](Cc1ccc(O)cc1)NS(=O)(=O)c1ccccc1Cl", "criterion not met"]
]}

---

# Measured Target: Muscle, skeletal receptor tyrosine-protein kinase (Homo sapiens) (UniProt O15146)
# Sequence (O15146 whole entry): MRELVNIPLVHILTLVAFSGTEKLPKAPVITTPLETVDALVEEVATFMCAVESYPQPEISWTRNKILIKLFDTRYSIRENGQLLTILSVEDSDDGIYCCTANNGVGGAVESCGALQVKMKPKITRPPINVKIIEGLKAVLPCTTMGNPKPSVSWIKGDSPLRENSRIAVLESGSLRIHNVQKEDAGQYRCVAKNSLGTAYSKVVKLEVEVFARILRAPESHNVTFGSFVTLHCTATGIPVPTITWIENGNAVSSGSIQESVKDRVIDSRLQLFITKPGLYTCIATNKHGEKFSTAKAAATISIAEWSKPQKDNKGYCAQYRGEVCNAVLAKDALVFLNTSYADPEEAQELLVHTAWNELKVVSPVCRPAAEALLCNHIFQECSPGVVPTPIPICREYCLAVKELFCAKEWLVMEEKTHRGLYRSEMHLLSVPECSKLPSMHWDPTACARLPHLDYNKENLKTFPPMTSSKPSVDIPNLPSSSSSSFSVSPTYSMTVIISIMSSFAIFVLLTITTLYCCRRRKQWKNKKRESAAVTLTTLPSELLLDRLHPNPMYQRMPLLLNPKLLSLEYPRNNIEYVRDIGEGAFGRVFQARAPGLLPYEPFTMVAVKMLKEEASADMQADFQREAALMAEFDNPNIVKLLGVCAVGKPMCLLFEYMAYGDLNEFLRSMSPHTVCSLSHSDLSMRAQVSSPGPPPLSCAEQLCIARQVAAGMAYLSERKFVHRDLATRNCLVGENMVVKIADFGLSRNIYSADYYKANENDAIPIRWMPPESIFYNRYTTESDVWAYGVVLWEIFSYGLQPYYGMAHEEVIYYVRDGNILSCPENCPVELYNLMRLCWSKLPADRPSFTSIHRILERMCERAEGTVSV
# Assay Explanation: Inhibition of MUSK (unknown origin) at 10 uM relative to control
Use true (1) when the recorded inhibition is no lower than 30%; use false (0) when it is lower.

{"columns": ["Compound Structure", "Label"],
 "data": [
  ["CC(C)C[C@H]1CNC(=N)N1C[C@H](Cc1ccc(O)cc1)NS(=O)(=O)c1ccccc1Cl", "false (0)"],
  ["N=C1NC[C@H](CC2CCCCC2)N1C[C@H](Cc1ccc(O)cc1)NS(=O)(=O)c1ccccc1Cl", "true (1)"],
  ["N=C1NC[C@H](CC2CCCCC2)N1C[C@H](Cc1ccccc1)NS(=O)(=O)c1ccccc1", "true (1)"],
  ["CC(C)C[C@H]1CNC(=N)N1C[C@H](Cc1ccccc1)NS(=O)(=O)c1ccccc1", "false (0)"],
  ["Cc1ccc(S(=O)(=O)N[C@@H](Cc2ccc(O)cc2)CN2C(=N)NC[C@@H]2CC2CCCCC2)cc1", "true (1)"],
  ["Cc1ccc(S(=O)(=O)N[C@@H](Cc2ccc(O)cc2)CN2C(=N)NC[C@@H]2CC(C)C)cc1", "false (0)"]
]}

These data points were gathered from ChEMBL document CHEMBL4619718.
